Cited source for all entries: patent US20160159940A1

- test-details: Transcellular permeability of Nile Red across Caco-2 cell monolayers
- Format: in vitro ADME
- applied-conditions: human, Caco-2; 1 hour incubation, 1 μM Nile Red, mean of biological triplicate; read-out: Papp Apical > Basolateral
endpoint-label: Papp A→B at 1 h, 1 μM (×10⁻⁶ cm/s)

[[record]]
molecule = "CCN(CC)c1ccc2nc3c4ccccc4c(=O)cc-3oc2c1 [aqueous Nile Red, Nile red]"
recorded_value = 23.7


----------
- Tested on: Caco-2 cells
- test-details: MTT assay of Caco-2 cells (cytotoxicity)
- Assay type: cell-based
- applied-conditions: Homo sapiens, Caco-2, 24 hour incubation, FIG. 6, read-out: EC50
endpoint-label: EC50 (nM)

[[record]]
compound_structure_string = "CCN(CC)c1ccc2nc3c4ccccc4c(=O)cc-3oc2c1"
system_name = "Caco-2 cells"
endpoint_label = "EC50"
unit_of_measure = "nM"
recorded_value = 1160

